Change in cholesterol overview
target: Sterol O-acyltransferase 1 (Cricetulus griseus) (UniProt Q60457); assay: Compound was tested for the change in liver cholesteryl ester (CE) levels by the inhibition of ACAT in hamster at 50 mg/kg p.o.; assay type: functional, organism-based; design: dose 50 mg/kg
Sequence (Q60457 whole entry): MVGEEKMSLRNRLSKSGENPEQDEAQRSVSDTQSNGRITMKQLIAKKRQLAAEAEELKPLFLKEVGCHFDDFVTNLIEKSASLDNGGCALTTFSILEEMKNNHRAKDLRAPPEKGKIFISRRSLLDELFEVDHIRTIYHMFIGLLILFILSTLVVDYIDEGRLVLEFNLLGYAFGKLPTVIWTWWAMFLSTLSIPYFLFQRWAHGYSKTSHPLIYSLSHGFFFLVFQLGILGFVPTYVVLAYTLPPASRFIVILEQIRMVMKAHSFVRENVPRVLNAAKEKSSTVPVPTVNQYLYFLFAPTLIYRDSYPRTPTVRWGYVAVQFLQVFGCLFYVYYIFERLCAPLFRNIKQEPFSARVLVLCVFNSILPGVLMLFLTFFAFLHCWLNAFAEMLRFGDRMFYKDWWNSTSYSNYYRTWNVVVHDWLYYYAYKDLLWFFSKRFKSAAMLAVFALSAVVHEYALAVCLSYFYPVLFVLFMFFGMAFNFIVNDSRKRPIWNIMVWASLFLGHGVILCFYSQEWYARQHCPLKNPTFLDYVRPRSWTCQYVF

COMPOUND | Change in cholesterol
COc1ccc([C@@H]2N(c3ccccc3)C(=O)C23CCC(c2ccc(Cl)cc2)CC3)cc1 (stereo in doubt; 17) | -97%
O=Cc1ccc([C@@H]2[C@@H](CCCc3ccccc3)C(=O)N2c2ccc(O)cc2)cc1 | -68%
COc1ccc([C@@H]2[C@@H](/C=C\Cc3ccccc3)C(=O)N2c2ccc(OC)cc2)cc1 | -73%
O=C1[C@H](CCCc2ccccc2)[C@@H](c2ccc(O)cc2)N1c1ccc(O)cc1 | -78%

Query for Sterol O-acyltransferase 1 (Cricetulus griseus) (UniProt Q60457): what Change in cholesterol does the record show for `O=Cc1ccc([C@@H]2[C@@H](CCCc3ccc(O)cc3)C(=O)N2c2ccc(C=O)cc2)cc1` ?
-78%

Measured values drawn from ChEMBL document CHEMBL1139451 for this set.
